- Study System: GoSLDH (Gluconobacter oxydans)
- Sequence (Q9KWR5 1-485): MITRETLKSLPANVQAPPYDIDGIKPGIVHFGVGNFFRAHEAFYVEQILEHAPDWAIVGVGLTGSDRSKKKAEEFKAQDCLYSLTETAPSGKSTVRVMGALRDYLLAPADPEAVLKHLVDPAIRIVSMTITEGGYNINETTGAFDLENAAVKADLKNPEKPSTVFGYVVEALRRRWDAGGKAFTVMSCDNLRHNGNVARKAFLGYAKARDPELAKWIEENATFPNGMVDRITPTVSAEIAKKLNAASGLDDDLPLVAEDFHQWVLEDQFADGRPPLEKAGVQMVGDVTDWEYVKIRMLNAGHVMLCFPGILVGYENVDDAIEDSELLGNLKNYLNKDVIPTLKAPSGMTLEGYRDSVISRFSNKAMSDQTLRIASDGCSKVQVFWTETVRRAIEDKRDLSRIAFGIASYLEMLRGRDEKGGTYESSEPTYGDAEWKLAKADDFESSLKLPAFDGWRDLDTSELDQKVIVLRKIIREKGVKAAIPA
Below is a list of entries, each paired with its recorded Kd value.
Express it in µM; write the number only.

// field: Kd; key: NC(=O)C1=CN([C@@H]2O[C@H](COP(=O)(O)OP(=O)(O)OC[C@H]3O[C@@H](n4cnc5c(N)ncnc54)[C@H](OP(=O)(O)O)[C@@H]3O)[C@@H](O)[C@H]2O)C=CC1 [NADPH] ; value = 67.1

Entry under test: NC(=O)c1ccc[n+]([C@@H]2O[C@H](COP(=O)(O)OP(=O)(O)OC[C@H]3O[C@@H](n4cnc5c(N)ncnc54)[C@H](OP(=O)(O)O)[C@@H]3O)[C@@H](O)[C@H]2O)c1 [NADP^+] . Its Kd was 89.3
